ASSAY_TEXT: DRUGMATRIX: beta-Lactamase enzyme inhibition (substrate: Nitrocefin)
Set-up: species or system Bacillus cereus
EXPERIMENTAL_CONTEXT: Not Active = under 50% inhibition at 10 µM
ATTRIBUTE_MEASURED: IC50

>>> endpoint_result("CN(C)C(=O)Oc1cccc([N+](C)(C)C)c1.[Br-] [NEOSTIGMINE BROMIDE]")
"Not Active"
>>> endpoint_result("C[C@H]1O[C@H](O[C@H]2[C@H](O)[C@@H](O)[C@@H](O[C@H]3[C@H](O)[C@@H](O)C(O)O[C@@H]3CO)O[C@@H]2CO)[C@H](O)[C@@H](O)[C@@H]1N[C@H]1C=C(CO)[C@@H](O)[C@H](O)[C@H]1O (stereo partly drawn)")
"Not Active"
>>> endpoint_result("CN1CCN(c2c(F)cc3c(=O)c(C(=O)O)cn(CCF)c3c2F)CC1")
"Not Active"

###

MEASUREMENT_TARGET: 5-hydroxytryptamine receptor 4 (Cavia porcellus, UniProt O70528); note: in other assays of this panel Not Active means under 50% inhibition at 10 µM
Sequence (O70528 whole entry): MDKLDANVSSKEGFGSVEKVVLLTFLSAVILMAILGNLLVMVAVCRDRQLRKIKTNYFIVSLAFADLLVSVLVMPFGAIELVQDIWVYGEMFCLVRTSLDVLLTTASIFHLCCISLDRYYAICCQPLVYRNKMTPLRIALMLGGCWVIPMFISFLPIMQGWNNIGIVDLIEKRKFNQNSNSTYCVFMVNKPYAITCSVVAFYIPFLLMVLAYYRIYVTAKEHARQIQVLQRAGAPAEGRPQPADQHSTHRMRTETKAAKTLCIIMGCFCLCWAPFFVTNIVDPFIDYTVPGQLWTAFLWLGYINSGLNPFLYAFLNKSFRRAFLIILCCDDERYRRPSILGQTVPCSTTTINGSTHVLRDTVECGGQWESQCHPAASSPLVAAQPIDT
Type: cell membranes, Dunkin-Hartley, Striatum, Membrane
ATTRIBUTE_MEASURED: Ki

>>> endpoint_result("TRANSPLATIN")
"Not Active"
>>> endpoint_result("ZIRCONIUM(IV) CHLORIDE")
"Not Active"
>>> endpoint_result("COBALTOUS CHLORIDE")
"Not Active"
>>> endpoint_result("COLISTIN")
"Not Active"

###

MEASUREMENT_TARGET: UniProt P06241
Sequence (P06241 whole entry): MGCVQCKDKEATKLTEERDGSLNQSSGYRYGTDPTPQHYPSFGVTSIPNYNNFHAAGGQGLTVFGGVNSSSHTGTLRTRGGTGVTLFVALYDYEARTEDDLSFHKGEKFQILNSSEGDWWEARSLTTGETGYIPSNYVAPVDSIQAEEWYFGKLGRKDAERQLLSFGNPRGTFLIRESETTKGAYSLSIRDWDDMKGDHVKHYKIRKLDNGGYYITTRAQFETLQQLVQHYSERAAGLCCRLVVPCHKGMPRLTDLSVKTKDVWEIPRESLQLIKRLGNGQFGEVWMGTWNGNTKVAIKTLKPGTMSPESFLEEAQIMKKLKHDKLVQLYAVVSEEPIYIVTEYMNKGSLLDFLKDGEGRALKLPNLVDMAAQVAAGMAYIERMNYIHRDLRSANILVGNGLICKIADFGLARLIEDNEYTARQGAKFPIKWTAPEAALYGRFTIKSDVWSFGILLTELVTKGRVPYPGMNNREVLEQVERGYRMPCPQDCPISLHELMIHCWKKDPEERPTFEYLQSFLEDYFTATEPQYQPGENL
ASSAY_TEXT: biochemical
Type: cell-based, Insect cells
EXPERIMENTAL_CONTEXT: insect cells
ATTRIBUTE_MEASURED: IC50

>>> endpoint_result("ClC(Cl)(Cl)Cl [CARBON TETRACHLORIDE]")
"Not Active"
>>> endpoint_result("O=c1[nH]c(=O)n(C2CCCO2)cc1F (stereo unspecified)")
"Not Active"
>>> endpoint_result("CC(=O)OC[C@H]1O[C@@H](n2ncc(=O)[nH]c2=O)[C@H](OC(C)=O)[C@@H]1OC(C)=O")
"Not Active"
>>> endpoint_result("C[C@]12CC[C@H]3[C@@H](CCC4=CC(=O)CC[C@@H]43)[C@@H]1CC[C@@H]2O")
"Not Active"
>>> endpoint_result("O=C(O)CC(O)(CC(=O)O)C(=O)O")
"Not Active"
>>> endpoint_result("C[C@@H]1C/C=C/C=C/C=C/C=C/[C@H](O[C@@H]2O[C@H](C)[C@@H](O)[C@H](N)[C@@H]2O)C[C@@H]2O[C@](O)(C[C@@H](O)C[C@H]3O[C@@H]3/C=C/C(=O)O1)C[C@H](O)[C@H]2C(=O)O")
"Not Active"

###

MEASUREMENT_TARGET: 5-hydroxytryptamine receptor 1A (Rattus norvegicus); note: in other assays of this panel Not Active means under 50% inhibition at 10 µM
Sequence (P19327 whole entry): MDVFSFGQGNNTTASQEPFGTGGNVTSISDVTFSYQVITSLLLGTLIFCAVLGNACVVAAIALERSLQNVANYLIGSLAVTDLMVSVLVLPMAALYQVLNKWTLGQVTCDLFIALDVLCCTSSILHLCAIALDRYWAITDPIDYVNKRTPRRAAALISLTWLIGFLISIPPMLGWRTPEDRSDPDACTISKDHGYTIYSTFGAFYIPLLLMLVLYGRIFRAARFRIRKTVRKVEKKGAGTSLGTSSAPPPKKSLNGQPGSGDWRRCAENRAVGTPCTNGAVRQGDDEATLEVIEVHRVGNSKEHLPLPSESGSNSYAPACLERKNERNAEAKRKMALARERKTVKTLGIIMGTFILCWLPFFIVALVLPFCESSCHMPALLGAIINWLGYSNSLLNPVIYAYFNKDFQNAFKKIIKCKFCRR
Format: cell membranes, CHO-K1, Membrane
EXPERIMENTAL_CONTEXT: cho-k1
ATTRIBUTE_MEASURED: IC50

>>> endpoint_result("CC(C)c1c(C(=O)Nc2ccccc2)c(-c2ccccc2)c(-c2ccc(F)cc2)n1CC[C@@H](O)C[C@@H](O)CC(=O)O [ATORVASTATIN]")
"Not Active"
>>> endpoint_result("Cc1cccc(C)c1NC(=O)C1CCCCN1C (stereo unspecified) [MEPIVACAINE]")
"Not Active"
>>> endpoint_result("C[C@]12CC[C@@H]3c4ccc(O)cc4CC[C@H]3[C@@H]1C[C@@H](O)[C@@H]2O [ESTRIOL]")
"Not Active"
>>> endpoint_result("C[C@H]1O[C@H](O[C@H]2[C@H](O)[C@@H](O)[C@@H](O[C@H]3[C@H](O)[C@@H](O)C(O)O[C@@H]3CO)O[C@@H]2CO)[C@H](O)[C@@H](O)[C@@H]1N[C@H]1C=C(CO)[C@@H](O)[C@H](O)[C@H]1O (stereo partly specified) [ACARBOSE]")
"Not Active"
>>> endpoint_result("CN(C)C(=N)NC(=N)N [METFORMIN]")
"Not Active"
>>> endpoint_result("CN1CCN(CCCN2c3ccccc3Sc3ccc(C(F)(F)F)cc32)CC1 [TRIFLUOPERAZINE]")
"Not Active"
>>> endpoint_result("CCN(C(C)=O)c1cccc(-c2ccnc3c(C#N)cnn23)c1 [ZALEPLON]")
"Not Active"
>>> endpoint_result("O=C(O)P(=O)(O)O [FOSCARNET]")
"Not Active"
>>> endpoint_result("N[C@@H](Cn1ccc(=O)c(O)c1)C(=O)O [L-MIMOSINE]")
"Not Active"
>>> endpoint_result("C[C@@H]1O[C@@H](O[C@H]2C[C@@H](O)[C@]3(CO)[C@H]4[C@H](O)C[C@]5(C)[C@@H](C6=CC(=O)OC6)CC[C@]5(O)[C@@H]4CC[C@]3(O)C2)[C@H](O)[C@H](O)[C@H]1O [OUABAIN]")
"Not Active"
>>> endpoint_result("O=C(O)CCNC(=O)c1ccc(/N=N/c2ccc(O)c(C(=O)O)c2)cc1 [BALSALAZIDE]")
"Not Active"
>>> endpoint_result("COc1cc(OC)c(C(=O)CCCN2CCCC2)c(OC)c1 [BUFLOMEDIL]")
"Not Active"
>>> endpoint_result("Cc1ccc(C(=O)c2ccc(CC(=O)O)n2C)cc1 [TOLMETIN]")
"Not Active"
>>> endpoint_result("O=c1[nH]c(=O)n([C@H]2C[C@H](O)[C@@H](CO)O2)cc1F [FLOXURIDINE]")
"Not Active"
>>> endpoint_result("CO/N=C(\\C(=O)N[C@@H]1C(=O)N2C(C(=O)O)=C(COC(C)=O)CS[C@H]12)c1csc(N)n1 [CEFOTAXIME]")
"Not Active"
>>> endpoint_result("CS(=O)(=O)Nc1ccc([N+](=O)[O-])cc1Oc1ccccc1 [NIMESULIDE]")
"Not Active"

Hey, just so you know, these numbers are from ChEMBL document CHEMBL1909046.
